Values compiled from patent US6696470B2.

{"mol": "CC(=O)c1cc(-c2ccncc2)sc1N(C)Cc1ccccc1.Cl", "melting point": "199 to 202 °C"}
{"mol": "CC(=O)c1cc(-c2ccncc2)sc1Oc1cc(F)ccc1F", "melting point": "119 to 121 °C"}
{"mol": "CC(=O)c1c(-c2ccncc2)sc(-c2ccncc2)c1C", "melting point": "137 to 138 °C"}
{"mol": "CC(=O)c1sc(-c2ccncc2)c(C)c1-c1ccncc1", "melting point": "117 to 118 °C"}
{"mol": "CC1(C)CCC(=O)c2c1oc(-c1ccncc1)c2-c1ccccc1", "melting point": "156 to 157 °C"}
{"mol": "Cc1c(-c2ccncc2)sc(-c2ccncc2)c1C=NO.Cl.Cl", "melting point": "258 to 261 °C (dec.)"}
{"mol": "O=C1CCCc2sc(-c3ccncc3)cc21", "melting point": "156 to 158 °C"}
{"mol": "Cc1c(-c2ccncc2)sc(-c2ccncc2)c1CF", "melting point": "148 to 148.5 °C"}
{"mol": "CNC(=O)c1cc(-c2ccncc2)sc1-c1ccncc1", "melting point": "197 to 199 °C"}
{"mol": "Cc1c(-c2ccncc2)oc2c1C(=O)CCC2(C)C", "melting point": "138 to 140 °C"}
